All figures here come from patent US20180155413A1.

molecular target: HA of A/Hong Kong/8/68 (H3N2) (influenza A virus); test: cell-based or functional assay
assay.metric: Neutralization (IC50) (nM)
Use nM as the unit, but write only the number.

Input line: Which Neutralization (IC50) value belongs to GL20 IgG (antibody, V domains shown) VH: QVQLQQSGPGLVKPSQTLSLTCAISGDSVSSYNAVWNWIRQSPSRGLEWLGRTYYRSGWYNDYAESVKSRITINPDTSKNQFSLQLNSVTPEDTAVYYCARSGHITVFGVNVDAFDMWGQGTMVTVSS VL: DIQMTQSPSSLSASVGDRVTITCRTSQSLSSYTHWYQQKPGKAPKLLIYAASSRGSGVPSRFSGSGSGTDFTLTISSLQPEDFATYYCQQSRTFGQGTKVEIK ?
Output line: 7

Input line: So what does the record say about Neutralization (IC50) for FY1 IgG (antibody, V domains shown) VH: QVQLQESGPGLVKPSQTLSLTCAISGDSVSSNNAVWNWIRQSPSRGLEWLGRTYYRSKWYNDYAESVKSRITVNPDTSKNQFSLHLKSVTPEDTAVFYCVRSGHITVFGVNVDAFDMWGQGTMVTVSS VL: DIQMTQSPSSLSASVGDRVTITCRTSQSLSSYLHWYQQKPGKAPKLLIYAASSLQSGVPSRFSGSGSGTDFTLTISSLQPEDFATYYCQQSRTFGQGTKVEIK ?
Output line: 10.6
